Where do the numbers come from? From PubChem BioAssay AID1963451.

Items are presented alongside their recorded viability, T/C.
Test system: 521955-158-R6-J3-PDC complex spheroid growth, % test/control;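 note: spheroids exposed to compounds for 7 days; 100% = DMSO vehicle control wells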
Assay: Anticancer human tumor 521955-158-R6-J3-PDC patient-derived pancreatic carcinoma cell line growth inhibition [Asc]
Settings: second compound 0.0949 µM; first compound 0.0316 µM; hits give low values
Respond with the bare value in %.

Look over these answered cases.
compound="CNC(C)C(=O)NC1CN(S(=O)(=O)c2cccc(S(=O)(=O)N3CCC4CCC(C(=O)NC(c5ccccc5)c5ccccc5)N4C(=O)C(NC(=O)C(C)NC)C3)c2)CCC2CCC(C(=O)NC(c3ccccc3)c3ccccc3)N2C1=O (stereo not given) + CCN1C(C(=O)NC23CCC(C(=O)O)(CC2)CC3)C(c2cccc(Cl)c2F)C2(C(=O)Nc3cc(Cl)ccc32)C12CCCCC2" outcome_measure="viability, T/C" unit_descriptor=% result=92.3
compound="COc1c(OCCCN2CCOCC2)ccc2c3n(c(=NC(=O)c4cnc(N)nc4)nc12)CCN3 + CCN1C(C(=O)NC23CCC(C(=O)O)(CC2)CC3)C(c2cccc(Cl)c2F)C2(C(=O)Nc3cc(Cl)ccc32)C12CCCCC2" outcome_measure="viability, T/C" unit_descriptor=% result=59.5
compound="O=C(c1cc(Cc2n[nH]c(=O)c3ccccc23)ccc1F)N1CCN(C(=O)C2CC2)CC1 + CCN1C(C(=O)NC23CCC(C(=O)O)(CC2)CC3)C(c2cccc(Cl)c2F)C2(C(=O)Nc3cc(Cl)ccc32)C12CCCCC2" outcome_measure="viability, T/C" unit_descriptor=% result=106
compound="C#Cc1c(F)ccc2cc(O)cc(-c3ncc4c(N5CC6CCC(C5)N6)nc(OCC56CCCN5CC(F)C6)nc4c3F)c12 (stereo not given) + CCN1C(C(=O)NC23CCC(C(=O)O)(CC2)CC3)C(c2cccc(Cl)c2F)C2(C(=O)Nc3cc(Cl)ccc32)C12CCCCC2" outcome_measure="viability, T/C" unit_descriptor=% result=81.6

Reported viability, T/C ( CCN1CCN(Cc2ccc(Nc3ncc(F)c(-c4cc(F)c5nc(C)n(C(C)C)c5c4)n3)nc2)CC1 + CCN1C(C(=O)NC23CCC(C(=O)O)(CC2)CC3)C(c2cccc(Cl)c2F)C2(C(=O)Nc3cc(Cl)ccc32)C12CCCCC2 ) = 97.4

The value of viability, T/C measured for the compound Cn1ncnc1[C@H]1c2n[nH]c(=O)c3cc(F)cc(c23)N[C@@H]1c1ccc(F)cc1 + CCN1C(C(=O)NC23CCC(C(=O)O)(CC2)CC3)C(c2cccc(Cl)c2F)C2(C(=O)Nc3cc(Cl)ccc32)C12CCCCC2 turned out to be 94.3

response.value for NC1CCC(NC2CC2c2ccccc2)CC1 (stereo not given) + CCN1C(C(=O)NC23CCC(C(=O)O)(CC2)CC3)C(c2cccc(Cl)c2F)C2(C(=O)Nc3cc(Cl)ccc32)C12CCCCC2 (field: viability, T/C) = 99.6

Short answer for O=C(c1ccc(F)c(F)c1Nc1ccc(I)cc1F)N1CC(O)([C@@H]2CCCCN2)C1 + CCN1C(C(=O)NC23CCC(C(=O)O)(CC2)CC3)C(c2cccc(Cl)c2F)C2(C(=O)Nc3cc(Cl)ccc32)C12CCCCC2 : viability, T/C was 114

// sample C=C(F)C(=O)N1CCN(c2nc(OCC3CCCN3C)nc3c2CCN(c2cccc4cccc(Cl)c24)C3)CC1CC#N (stereo not given) + CCN1C(C(=O)NC23CCC(C(=O)O)(CC2)CC3)C(c2cccc(Cl)c2F)C2(C(=O)Nc3cc(Cl)ccc32)C12CCCCC2 , its viability, T/C was 113

Kindly note the recorded viability, T/C for C=CC(=O)N1CCN(c2nc(=O)n(-c3c(C)ccnc3C(C)C)c3nc(-c4c(O)cccc4F)c(F)cc23)C(C)C1 (stereo not given) + CCN1C(C(=O)NC23CCC(C(=O)O)(CC2)CC3)C(c2cccc(Cl)c2F)C2(C(=O)Nc3cc(Cl)ccc32)C12CCCCC2 , which is 119
